Target: T1, PUF4 RNA-binding domain (Saccharomyces cerevisiae, UniProt P25339 537-888)
T1 sequence: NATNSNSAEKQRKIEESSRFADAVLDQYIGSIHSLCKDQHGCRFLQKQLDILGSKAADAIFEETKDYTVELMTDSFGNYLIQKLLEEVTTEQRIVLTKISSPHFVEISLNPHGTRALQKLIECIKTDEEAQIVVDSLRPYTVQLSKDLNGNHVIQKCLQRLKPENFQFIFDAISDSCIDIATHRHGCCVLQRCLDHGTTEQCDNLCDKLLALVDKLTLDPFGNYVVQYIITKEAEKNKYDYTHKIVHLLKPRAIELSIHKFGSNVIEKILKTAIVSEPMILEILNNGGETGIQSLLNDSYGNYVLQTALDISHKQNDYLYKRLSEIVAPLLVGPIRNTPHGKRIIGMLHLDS
Assay: Mg; RNA-MaP; 20 mM Na-HEPES pH 7.4, 30 mM KOAc, 0.75 mM MgCl2, 0.1% Tween-20, 5% glycerol, 0.1 mg/mL BSA, 2 mM DTT; 25 C; 0.0125-409.6 nM protein
Conditions: tags: N-His6-TEV cleaved; C-SNAP kept, Cy3B-labelled; label: tethered on chip by stalled RNA polymerase
REPORTED ENDPOINT: pKd
Note: pKd values are expressed as the negative base-10 logarithm of concentration in M.

Qu. # return recorded pKd for input Ic_S2_P4E.1_K4.1_C4.1_H4.1_A4.1_[T5C]_[A6T]_F4.1_[T8A]_[A9T]_T4.1 (ssRNA) RNA: UUUGAUUAAUAUGAUAUCGUUCUUUCUUGUACUUAUUUCUUUCUCGAUAUCAUAUUAAUCUUU
Ans. 7.87

Qu. # return recorded pKd for input Id_ii_S2_P4E.2_K4.1_C4.2_[C-2G]_H4.1_A4.1_F4.1_T4.2_[G10A] (ssRNA) RNA: UUUGAUUAAUAUGAUAUCGUUCUUUCUGUUGUAUAUUAAUUUCUUUCUCGAUAUCAUAUUAAUCUUU
Ans. 9.14

Qu. # return recorded pKd for input UCUCUUCGUAUAUUAUUAUCUCUCUU (ssRNA) [Id_ii_S1_P5E.3_K5.2_C5.2_[T-1G]_H5.2_A5.1_F5.1_T5.2_[A12C]]
Ans. 7.73

Qu. # return recorded pKd for input Ie_S2_P3E.2_K3.1_C3.2_H3.1_A3.1_F3.1_[+7CT]_T3.2 (ssRNA) RNA: UUUGAUUAAUAUGAUAUCGUUCUUUCUCUUGUAUAUCUAUAUUCUUUCUCGAUAUCAUAUUAAUCUUU
Ans. 8.48
